Target: T1, CAPRIN-1 protein expressed on the membrane surface of human cancer cells (human, UniProt Q14444 2-709)
T1 sequence (looked up): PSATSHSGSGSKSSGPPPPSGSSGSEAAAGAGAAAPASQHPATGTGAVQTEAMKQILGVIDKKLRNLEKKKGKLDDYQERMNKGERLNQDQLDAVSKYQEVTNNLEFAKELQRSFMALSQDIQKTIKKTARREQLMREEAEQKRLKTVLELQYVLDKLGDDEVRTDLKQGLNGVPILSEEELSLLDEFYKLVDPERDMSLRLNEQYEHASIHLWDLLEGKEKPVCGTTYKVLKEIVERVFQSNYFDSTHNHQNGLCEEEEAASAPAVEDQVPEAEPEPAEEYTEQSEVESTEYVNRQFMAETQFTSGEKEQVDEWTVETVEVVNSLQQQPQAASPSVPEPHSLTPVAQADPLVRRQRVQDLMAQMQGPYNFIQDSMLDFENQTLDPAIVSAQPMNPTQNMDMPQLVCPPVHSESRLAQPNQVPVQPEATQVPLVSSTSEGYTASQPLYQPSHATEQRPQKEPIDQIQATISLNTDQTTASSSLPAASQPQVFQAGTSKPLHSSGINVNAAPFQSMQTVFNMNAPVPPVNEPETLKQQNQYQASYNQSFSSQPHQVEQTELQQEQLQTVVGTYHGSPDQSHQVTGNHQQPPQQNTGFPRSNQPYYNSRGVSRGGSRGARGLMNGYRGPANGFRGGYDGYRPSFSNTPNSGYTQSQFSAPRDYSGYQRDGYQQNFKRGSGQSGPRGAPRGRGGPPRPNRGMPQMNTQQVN
Experiment: cell-based or functional assay
TEST_READOUT: ADCC cytotoxic activity (51Cr release) on TGBC14TKB

humanized antibody #10 (antibody, V domains shown) VH: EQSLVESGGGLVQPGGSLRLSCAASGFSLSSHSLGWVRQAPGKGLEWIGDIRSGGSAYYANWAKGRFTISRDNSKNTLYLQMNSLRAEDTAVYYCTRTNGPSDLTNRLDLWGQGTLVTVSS VL: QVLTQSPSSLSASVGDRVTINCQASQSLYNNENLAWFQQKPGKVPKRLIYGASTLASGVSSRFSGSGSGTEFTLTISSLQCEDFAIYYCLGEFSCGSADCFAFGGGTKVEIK    ≥ 35%
humanized antibody #4 (antibody, V domains shown) VH: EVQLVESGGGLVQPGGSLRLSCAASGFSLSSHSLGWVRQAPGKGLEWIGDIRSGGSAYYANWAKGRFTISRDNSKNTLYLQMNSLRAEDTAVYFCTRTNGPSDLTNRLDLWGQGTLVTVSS VL: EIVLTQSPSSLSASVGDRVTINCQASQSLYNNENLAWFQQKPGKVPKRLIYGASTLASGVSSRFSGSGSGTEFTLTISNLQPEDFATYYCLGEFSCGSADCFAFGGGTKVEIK    ≥ 30%

Now for a further binder.
Report ADCC cytotoxic activity (51Cr release) on TGBC14TKB for humanized antibody #3 (antibody, V domains shown) VH: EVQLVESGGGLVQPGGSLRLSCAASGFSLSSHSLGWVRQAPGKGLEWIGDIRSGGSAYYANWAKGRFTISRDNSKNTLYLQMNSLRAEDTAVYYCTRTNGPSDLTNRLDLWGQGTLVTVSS VL: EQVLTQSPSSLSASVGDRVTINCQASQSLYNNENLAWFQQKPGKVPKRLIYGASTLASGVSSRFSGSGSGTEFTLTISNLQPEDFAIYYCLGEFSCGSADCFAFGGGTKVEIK please. ≥ 30%

Data provenance is patent US20160297889A1.
